tested on: a viral challenge; type: cell-based
Counter-ions that a name gives are not always drawn.
As shown below, each of these compounds has a reported Fold enhancement of antiviral activity value.
Give a bare numeral; the unit fold is implied.

COMPOUND	RECORDED_MEASUREMENT
C#Cc1c(C(N)=O)ncn1[C@@H]1O[C@H](CO)[C@@H](O)[C@H]1O [EICAR]	2
NC12CC3CC(CC(C3)C1)C2 [amantadine, amantadine hydrochloride]	50
COc1c(C)c2c(c(O)c1C/C=C(\C)CCC(=O)O)C(=O)OC2 [mycophenolic acid]	3

Next compound, Fold enhancement of antiviral activity to be filled in.
Tell me reported Fold enhancement of antiviral activity for Nc1ccn([C@@H]2C=C(CO)[C@@H](O)[C@H]2O)c(=O)n1 [CPE-C, cyclopentenyl cytosine] , tested with a viral challenge.
10
